System: HLA-A*0201 transgenic HHD mice
test details: Tetramer-positive CD8 T cells in draining lymph nodes of vaccinated HHD mice
Type: in vivo, mouse
applied conditions: HHD mice, response to all three peptides
This listing pairs substances with measured Trispecific response.
endpoint: Trispecific response

substance="YLEEITGYL-YLQVNSLQTV-YLEYRQVPV (SEQ ID No: 5) (YLEEITGYLYLQVNSLQTVYLEYRQVPV; Poly-3) [polypeptide variant, arrangement N-T-M]" endpoint="Trispecific response" value="12.5 % of vaccinated mice"
substance="YLQVNSLQTV-YLEYRQVPV-YLEEITGYL (SEQ ID No: 2) (YLQVNSLQTVYLEYRQVPVYLEEITGYL; Poly-6) [polypeptide variant, arrangement T-M-N]" endpoint="Trispecific response" value="67 % of vaccinated mice"
substance="YLEEITGYL-YLEYRQVPV-YLQVNSLQTV (SEQ ID No: 6) (YLEEITGYLYLEYRQVPVYLQVNSLQTV; Poly-4) [polypeptide variant, arrangement N-M-T]" endpoint="Trispecific response" value="37.5 % of vaccinated mice"
substance="YLQVNSLQTV-YLEEITGYL-YLEYRQVPV (SEQ ID No: 7) (YLQVNSLQTVYLEEITGYLYLEYRQVPV; Poly-5) [polypeptide variant, arrangement T-N-M]" endpoint="Trispecific response" value="25 % of vaccinated mice"
substance="YLEYRQVPV-YLEEITGYL-YLQVNSLQTV (SEQ ID No: 3) (YLEYRQVPVYLEEITGYLYLQVNSLQTV; Poly-1) [polypeptide variant of MAGE-A248V9, HER-2/neu402Y and TERT988Y, arrangement M-N-T]" endpoint="Trispecific response" value="28.5 % of vaccinated mice"
